# MEASUREMENT_DESCRIPTION: In vitro metabolic stability in human liver microsomes
# Assay type: in vitro ADME
# CONDITIONS_USED: human liver microsomes, 15 min incubation, NADPH regenerating system, potassium phosphate buffer pH 7.4, 37 °C, 5 min pre-incubation, LC-qTOF-MS
PROPERTY_MEASURED: remaining at 0.25 h (%)
Give just the number in %; leave the unit off.

# remaining at 0.25 h (molecule: "CC[C@H](C)[C@@H]1NC(=O)CNC(=O)[C@@H]2Cc3c([nH]c4cc(O)ccc34)[S@+]([O-])C[C@H](NC(=O)CNC1=O)C(=O)N[C@@H](CC(N)=O)C(=O)N1C[C@H](O)C[C@H]1C(=O)N[C@@H]([C@@H](C)[C@@H](O)CO)C(=O)N2" ) is 89.2

Entry source: paper PMC9740789
